# Test system: HCC-44
# Method: relative viability (nuclei count vs DMSO), 5 days (fraction); higher = more cells survive
# Reported Conditions: first compound 0.4 µM
Experimental Endpoint: relative viability
A bare number is all that is needed in reply.

Clc1ccc(Nc2nnc(Cc3ccncc3)c3ccccc23)cc1 [Vatalanib] + CC1(C)CCC(c2ccc(Cl)cc2)=C(CN2CCN(c3ccc(C(=O)NS(=O)(=O)c4ccc(N[C@H](CCN5CCOCC5)CSc5ccccc5)c(S(=O)(=O)C(F)(F)F)c4)cc3)CC2)C1 [Navitoclax] (partner 0.5 µM) = 0.93

I'd like to know its relative viability. The compound in question is C[C@@H]1CN(CC(=O)Nc2ccc3c(c2)Cc2cccc(-c4cc(=O)cc(N5CCOCC5)o4)c2S3)C[C@H](C)O1 + O=C(c1cc(Cc2n[nH]c(=O)c3ccccc23)ccc1F)N1CCN(C(=O)C2CC2)CC1 [Olaparib] (partner 8 µM)
0.955

Give the measured relative viability of COc1cc(N2CCC(C(N)=O)CC2)ccc1Nc1nc(N)c(Cl)c(Nc2ccccc2S(=O)(=O)C(C)C)n1 [HG-5-88-01] + N=C(N)NC(=N)NCCc1ccccc1 [Phenformin] (partner 250 µM) .
0.201

So what's the measured relative viability for this one? COc1cc(N2CCC(C(N)=O)CC2)ccc1Nc1nc(N)c(Cl)c(Nc2ccccc2S(=O)(=O)C(C)C)n1 [HG-5-88-01] + CC1(C)CCC(c2ccc(Cl)cc2)=C(CN2CCN(c3ccc(C(=O)NS(=O)(=O)c4ccc(N[C@H](CCN5CCOCC5)CSc5ccccc5)c(S(=O)(=O)C(F)(F)F)c4)cc3)CC2)C1 [Navitoclax] (partner 0.5 µM)
0.77
